// data source = patent US9206156B2

TARGET UNDER TEST: ORL1 receptor (Homo sapiens, UniProt P41146)
Construct: expressed in transfected cells; host or cells: CHO (recombinant CHO-ORL1 cells), membranes
Sequence (P41146 whole entry): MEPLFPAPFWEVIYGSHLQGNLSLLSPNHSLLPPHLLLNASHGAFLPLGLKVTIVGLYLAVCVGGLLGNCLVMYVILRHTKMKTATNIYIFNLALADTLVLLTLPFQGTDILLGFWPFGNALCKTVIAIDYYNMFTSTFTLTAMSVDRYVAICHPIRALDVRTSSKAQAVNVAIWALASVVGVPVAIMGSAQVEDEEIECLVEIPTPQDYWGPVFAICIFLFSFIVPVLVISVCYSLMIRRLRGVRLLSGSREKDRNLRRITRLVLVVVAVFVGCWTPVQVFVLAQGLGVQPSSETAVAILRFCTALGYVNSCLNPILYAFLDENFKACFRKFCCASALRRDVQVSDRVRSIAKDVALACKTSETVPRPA
EXPERIMENT: ORL1 receptor binding assay with 3H-nociceptin/orphanin FQ (WGA-SPA beads)
CONDITION DETAILS: c=1 μM test substance; 0.5 nM 3H-nociceptin/orphanin FQ; membranes of recombinant CHO-ORL1 cells
Each record is given 1.0 if its reported % Inhibition (ORL1) at 1 μM is strictly below 80%. Records at or above 80% are given 0.0.

Past entries and their recorded results:
Cc1c(CN(C)CCN2CCC(c3ccccc3)(N(C)C)CC2)c2ccccc2n1C: 0.0
CN(CCN1CCC(c2ccccc2)(N(C)C)CC1)C(=O)c1cc2cc(F)ccc2[nH]1: 0.0
CN(CCN1CCC(c2ccccc2)(N(C)C)CC1)Cc1c[nH]c2ccc(Cl)cc12 [Example 183]: 0.0
CN(Cc1ccc2cc[nH]c2c1)C(C(=O)N1CCC(c2cccs2)(N(C)C)CC1)c1ccccc1 (centres unmarked): 1.0
CN(C)C1(c2ccccc2)CCN(C(=O)C2CN(Cc3cccc4[nH]ccc34)c3ccccc32)CC1 (centres unmarked): 1.0

-- ask Report whether reported % Inhibition (ORL1) at 1 μM is lower than 80% (strictly) for CCCCC1(N(C)C)CCN(CCN(C)C(=O)Cc2c[nH]c3cc(F)ccc23)CC1
-- reply 1.0

-- ask Does this compound meet the criterion % Inhibition (ORL1) at 1 μM < 80%? CN(CCN1CCC(c2ccccc2)(N(C)C)CC1)Cc1ccc2cc[nH]c2c1
-- reply 0.0

-- ask Lab log: compare recorded % Inhibition (ORL1) at 1 μM with 80%; is it strictly lower for COc1ccc2[nH]cc(CNCCN3CCC(c4cccs4)(N(C)C)CC3)c2c1 ?
-- reply 0.0

-- ask Lab note: confirm whether the reported % Inhibition (ORL1) at 1 μM for this compound is below 80%, equality not counting. compound: CN(CCN1CCC(c2ccccc2)(N(C)C)CC1)Cc1c[nH]c2ccccc12 [Example 186]
-- reply 0.0

-- ask Would you kindly verify if % Inhibition (ORL1) at 1 μM of COc1ccc2[nH]cc(CN(C)CCN3CCC(c4ccccc4)(N(C)C)CC3)c2c1 [Example 192] is strictly less than 80%?
-- reply 1.0

* * *

Attribute: inhibition at 1 µM
TARGET UNDER TEST: ORL1 receptor (Homo sapiens)
Construct: expressed in transfected cells; host or cells: CHO (recombinant CHO-ORL1 cells), membranes
EXPERIMENT: ORL1 receptor binding assay with 3H-nociceptin/orphanin FQ (WGA-SPA beads)
CONDITION DETAILS: c=1 μM test substance; 0.5 nM 3H-nociceptin/orphanin FQ; membranes of recombinant CHO-ORL1 cells
Write it as a number; the unit % goes unstated.

CC(CC(=O)N1CCCC(C(=O)N2CCC(c3ccccc3)(N(C)C)CC2)C1)c1c[nH]c2ccccc12 (stereo not shown) [Example 122]: 43
CN(CCN1CCC(c2ccccc2)(N(C)C)CC1)C(=O)c1cccc2c1ccn2C [Example 31]: 35
COc1ccc2[nH]c(C(=O)N(C)CCCN3CCC(c4ccccc4)(N(C)C)CC3)cc2c1 [Example 66]: 33

Moving on to the next compound.
-- ask Recorded inhibition at 1 µM of CC(C)C(CC(=O)N1CCCC(C(=O)N2CCC(c3ccccc3)(N(C)C)CC2)C1)c1c[nH]c2ccccc12 (stereo not shown) [Example 106] , please.
-- reply 63
